Test: Solubility of each compound in water
Assay type: physicochemical
Structures can show the parent of a compound that is named as a salt.
PARAMETER MEASURED: Solubility (%)

>  <MOLECULE>
COc1cc(-c2ccc(N3CCN(c4ccc(-c5cc(OC)c(OC)c(OC)c5)nc4)C(CN(C)C)C3)cn2)cc(OC)c1OC (stereo not shown) [Example 47, trihydrochloride]

>  <PARAMETER MEASURED>
Solubility

>  <OBSERVED MEASUREMENT>
0.1

$$$$
>  <MOLECULE>
COc1cc(-c2ccc(N(C)CCN(C)c3ccc(-c4cc(OC)c(O)c(OC)c4)nc3)cn2)cc(OC)c1O [Example 14, dimethanesulfonate]

>  <PARAMETER MEASURED>
Solubility

>  <OBSERVED MEASUREMENT>
0.1

$$$$

I = COc1cc(-c2ccc(N3CCCN(c4ccc(-c5cc(OC)c(OC)c(OC)c5)nc4)CC3)cn2)cc(OC)c1OC [Example 30, dimethanesulfonate]
II = COc1cc(-c2ccc(N(C)CCN(C)CCN(C)c3ccc(-c4cc(OC)c(OC)c(OC)c4)nc3)cn2)cc(OC)c1OC [Example 42, trihydrochloride]
Q. Pick the one with the larger Solubility: I vs II Pick one and reply with its label.
A. II

====

Experiment: Solubility of each compound in water
Assay type: physicochemical
Counter-ions that a name gives are not always drawn.
PARAMETER MEASURED: Solubility (%)

>  <COMPOUND>
CCN(CCN(CC)c1ccc(-c2cc(OC)c(OC)c(OC)c2)nc1)c1ccc(-c2cc(OC)c(OC)c(OC)c2)nc1 [Example 36, dimethanesulfonate]

>  <OBSERVED MEASUREMENT>
10

$$$$
>  <COMPOUND>
COc1cc(-c2ccc(N(C)CCCN(C)c3ccc(-c4cc(OC)c(OC)c(OC)c4)nc3)cn2)cc(OC)c1OC [Example 37, dimethanesulfonate]

>  <OBSERVED MEASUREMENT>
10

$$$$
>  <COMPOUND>
COc1cc(-c2ccc(N(C)CC(C)(C)CN(C)c3ccc(-c4cc(OC)c(OC)c(OC)c4)nc3)cn2)cc(OC)c1OC [Example 39, dimethanesulfonate]

>  <OBSERVED MEASUREMENT>
10

$$$$

I = COc1cc(-c2ccc(NCCOCCNc3ccc(-c4cc(OC)c(OC)c(OC)c4)nc3)cn2)cc(OC)c1OC [Example 44, dimethanesulfonate]
II = COc1cc(-c2ccc(N(C)CCCN(C)CCCN(C)c3ccc(-c4cc(OC)c(OCC(F)(F)F)c(OC)c4)nc3)cn2)cc(OC)c1OCC(F)(F)F [Example 57, trihydrochloride]
III = COc1cc(-c2ccc(N(C)CCN(C)c3ccc(-c4cc(OC)c(OC)c(OC)c4)nc3)cn2)cc(OC)c1OC [Example 7, dimethanesulfonate]
Q. List from greatest to least Solubility. Ranked list of labels, please, in the requested order.
A. I, III, II
